Observed MIC values for B. subtilis (ATCC 6633) are listed in what follows.
Just the number in µg/mL, nothing appended.

Compound: CCCCCCCCCCCCCc1cc(O[C@@H]2O[C@H](CO)[C@H](O)[C@H](O)[C@H]2O)cc(O)c1C(=O)O [3d, Ariestatin D]
Experimental Value: 25
--
Compound: CCCCCC/C=C\CCCCCCCc1cc(O)cc(O)c1C(=O)O [4f, Capricostatin F]
Experimental Value: 0.8
--
Compound: CCCCCC/C=C\CCCCCCCc1cc(O[C@@H]2O[C@H](CO)[C@H](O)[C@H](O)[C@H]2O)cc(O)c1C(=O)Oc1cc(C)c(C(=O)O)c(O)c1 [4a, Capricostatin A]
Experimental Value: 1.6
--
Compound: CN(C)[C@@H]1C(O)=C(C(N)=O)C(=O)[C@@]2(O)C(O)=C3C(=O)c4c(O)cccc4[C@@](C)(O)[C@H]3C[C@@H]12 [tetracycline, reference compound]
Experimental Value: 6.3

### Prompt API: value(readout=MIC, system=B. subtilis (ATCC 6633)) for record CCCCCCCCCCCCCCCc1cc(O[C@@H]2O[C@H](CO)[C@@H](O)[C@H](O)[C@H]2O)cc(O)c1C(=O)Oc1cc(C)c(C(=O)O)c(O)c1 [1a, Aquastatin A]
### Response 1.6

### Prompt API: value(readout=MIC, system=B. subtilis (ATCC 6633)) for record CCCCCCCCCCCCCCCc1cc(O)cc(O)c1C(=O)Oc1cc(C)c(C(=O)O)c(O)c1 [1b, Aquastatin B]
### Response 1.6

### Prompt API: value(readout=MIC, system=B. subtilis (ATCC 6633)) for record CCCCCC/C=C\CCCCCCCc1cc(O)cc(O)c1C(=O)Oc1cc(C)c(C(=O)O)c(O)c1 [4b, Capricostatin B]
### Response 1.6

### Prompt API: value(readout=MIC, system=B. subtilis (ATCC 6633)) for record CCCCCCCCCCCCCCCc1cc(O[C@@H]2O[C@H](CO)[C@H](O)[C@H](O)[C@H]2O)cc(O)c1C(=O)O [1d, Aquastatin D]
### Response 3.1

### Prompt API: value(readout=MIC, system=B. subtilis (ATCC 6633)) for record CCCCCCCCCCCCCc1cc(O)cc(O)c1C(=O)Oc1cc(C)c(C(=O)O)c(O)c1 [3b, Ariestatin B]
### Response 1.6

### Prompt API: value(readout=MIC, system=B. subtilis (ATCC 6633)) for record CCCCCC/C=C\CCCCCCCc1cc(O[C@@H]2O[C@H](CO)[C@H](O)[C@H](O)[C@H]2O)cc(O)c1C(=O)O [4d, Capricostatin D]
### Response 25
